Recorded values, source patent US20240207429A1.

# OD450 per entry
Target: T1, Human FOLR1 Protein His Tag (ACRO-FO1-H52H1) (human, UniProt P15328 25-233)
T1 construct: not shown: His tag
T1 sequence (P15328 25-233 limits assumed): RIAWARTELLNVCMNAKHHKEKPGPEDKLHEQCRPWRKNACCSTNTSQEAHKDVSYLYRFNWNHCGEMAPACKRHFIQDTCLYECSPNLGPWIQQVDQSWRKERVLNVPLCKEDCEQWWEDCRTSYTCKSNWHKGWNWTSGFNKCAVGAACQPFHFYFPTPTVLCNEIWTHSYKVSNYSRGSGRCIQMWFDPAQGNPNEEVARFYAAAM
Test: ELISA, supernatant diluted 5x

>  <binder>
F40 (antibody, V domains shown, also called clone F40; anti-FOLR1 antibody F40) VH: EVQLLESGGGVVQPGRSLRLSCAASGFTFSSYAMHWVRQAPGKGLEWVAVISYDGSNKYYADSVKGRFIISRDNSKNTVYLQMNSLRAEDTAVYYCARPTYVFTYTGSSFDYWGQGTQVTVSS VL: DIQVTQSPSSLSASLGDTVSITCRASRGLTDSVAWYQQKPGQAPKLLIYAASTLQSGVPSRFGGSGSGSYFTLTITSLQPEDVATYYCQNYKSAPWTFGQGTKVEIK

>  <OD450>
0.382

$$$$
>  <binder>
F123 (antibody, V domains shown, also called clone F123; anti-FOLR1 antibody F123) VH: EVQLLESGGGVVQPERSLRLSCAASGFTFSSYGMHWVRQAPGKGLEWVAVISYDGSNKYYADSVKGRFTISRANSKNTLYLQMNSLRAEDTAVYYCARPRAYYGAYGSSFDYWGQGTQVTVSS VL: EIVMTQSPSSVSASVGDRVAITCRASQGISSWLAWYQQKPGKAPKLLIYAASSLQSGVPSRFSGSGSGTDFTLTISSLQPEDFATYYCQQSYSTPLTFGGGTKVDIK

>  <OD450>
1.47

$$$$
>  <binder>
F112 (antibody, V domains shown, also called clone F112; anti-FOLR1 antibody F112) VH: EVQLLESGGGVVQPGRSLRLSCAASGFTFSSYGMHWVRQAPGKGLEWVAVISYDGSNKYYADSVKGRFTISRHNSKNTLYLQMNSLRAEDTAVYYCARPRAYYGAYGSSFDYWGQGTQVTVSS VL: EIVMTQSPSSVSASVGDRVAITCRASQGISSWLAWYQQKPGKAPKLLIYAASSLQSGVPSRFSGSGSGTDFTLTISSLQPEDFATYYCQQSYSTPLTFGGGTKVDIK

>  <OD450>
1.42

$$$$
>  <binder>
F26 (antibody, V domains shown, also called clone F26; anti-FOLR1 antibody F26) VH: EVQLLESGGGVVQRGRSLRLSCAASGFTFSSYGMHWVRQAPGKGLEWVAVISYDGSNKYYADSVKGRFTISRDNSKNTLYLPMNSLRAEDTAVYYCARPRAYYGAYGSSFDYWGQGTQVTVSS VL: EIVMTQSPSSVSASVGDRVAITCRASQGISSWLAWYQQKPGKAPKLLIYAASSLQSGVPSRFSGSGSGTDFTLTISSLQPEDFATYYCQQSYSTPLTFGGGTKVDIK

>  <OD450>
1.51

$$$$
>  <binder>
F100 (antibody, V domains shown, also called clone F100; anti-FOLR1 antibody F100) VH: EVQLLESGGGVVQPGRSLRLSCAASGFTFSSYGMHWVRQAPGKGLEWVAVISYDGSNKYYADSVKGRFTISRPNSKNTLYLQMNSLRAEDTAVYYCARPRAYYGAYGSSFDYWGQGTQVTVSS VL: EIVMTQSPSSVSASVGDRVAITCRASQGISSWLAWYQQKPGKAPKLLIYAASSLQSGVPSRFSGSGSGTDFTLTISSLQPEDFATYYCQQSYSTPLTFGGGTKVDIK

>  <OD450>
1.53

$$$$
>  <binder>
F131 (antibody, V domains shown, also called clone F131; F131 mAb) VH: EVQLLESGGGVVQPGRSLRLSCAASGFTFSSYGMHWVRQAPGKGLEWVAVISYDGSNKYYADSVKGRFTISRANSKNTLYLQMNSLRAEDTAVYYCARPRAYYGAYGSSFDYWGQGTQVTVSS VL: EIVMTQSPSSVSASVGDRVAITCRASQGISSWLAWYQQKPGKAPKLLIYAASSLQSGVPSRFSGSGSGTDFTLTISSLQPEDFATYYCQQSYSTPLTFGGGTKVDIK

>  <OD450>
1.52

$$$$
>  <binder>
F1 (antibody, V domains shown, also called clone F1; anti-FOLR1 antibody F1) VH: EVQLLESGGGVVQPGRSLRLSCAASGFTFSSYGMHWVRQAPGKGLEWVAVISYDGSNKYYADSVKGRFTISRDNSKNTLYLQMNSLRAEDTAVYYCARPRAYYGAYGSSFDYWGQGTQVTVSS VL: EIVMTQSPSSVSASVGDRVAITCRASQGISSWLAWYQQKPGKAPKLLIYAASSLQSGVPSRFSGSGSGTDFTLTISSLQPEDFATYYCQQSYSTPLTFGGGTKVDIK

>  <OD450>
1.45

$$$$
>  <binder>
F138 (antibody, V domains shown, also called clone F138; anti-FOLR1 antibody F138) VH: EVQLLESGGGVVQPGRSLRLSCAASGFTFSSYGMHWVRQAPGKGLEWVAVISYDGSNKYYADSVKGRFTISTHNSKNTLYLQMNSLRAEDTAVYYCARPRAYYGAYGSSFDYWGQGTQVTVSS VL: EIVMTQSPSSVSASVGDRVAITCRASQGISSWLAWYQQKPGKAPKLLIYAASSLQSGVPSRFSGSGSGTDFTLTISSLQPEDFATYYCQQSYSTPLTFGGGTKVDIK

>  <OD450>
1.69

$$$$
>  <binder>
F48 (antibody, V domains shown, also called clone F48; anti-FOLR1 antibody F48) VH: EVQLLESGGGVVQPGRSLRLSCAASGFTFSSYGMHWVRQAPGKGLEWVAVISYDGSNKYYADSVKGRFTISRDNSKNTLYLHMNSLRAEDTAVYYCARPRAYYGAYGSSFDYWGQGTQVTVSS VL: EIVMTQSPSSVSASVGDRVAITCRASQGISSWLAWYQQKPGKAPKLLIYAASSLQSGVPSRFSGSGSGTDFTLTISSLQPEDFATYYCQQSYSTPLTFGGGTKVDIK

>  <OD450>
1.59

$$$$
>  <binder>
F8 (antibody, V domains shown, also called clone F8; anti-FOLR1 antibody F8) VH: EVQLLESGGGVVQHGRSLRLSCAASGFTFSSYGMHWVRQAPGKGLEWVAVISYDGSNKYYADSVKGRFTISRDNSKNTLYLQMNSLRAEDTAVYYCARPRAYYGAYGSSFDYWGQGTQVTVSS VL: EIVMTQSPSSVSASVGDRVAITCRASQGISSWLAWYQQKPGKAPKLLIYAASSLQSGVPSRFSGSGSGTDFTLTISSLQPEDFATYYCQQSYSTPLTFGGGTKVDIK

>  <OD450>
1.65

$$$$
